- Test system: KYSE-70 cell line;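 note: cell viability assay read-out, with IC50 expressing suppression of KYSE-70 cell growth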
- experiment-summary: cells
- Assay type: functional, cell-based, Homo sapiens
- condition-summary: Homo sapiens, KYSE-70
- Description: SANGER: Inhibition of human KYSE-70 cell growth in a cell viability assay.
measurement-name: IC50

compound: CN(Cc1cnc2nc(N)nc(N)c2n1)c1ccc(C(=O)N[C@@H](CCC(=O)O)C(=O)O)cc1 [METHOTREXATE]
IC50: > 0.2 µM
--
compound: COc1cc(F)c(F)c(Nc2ccc(I)cc2F)c1NS(=O)(=O)C1(CC(O)CO)CC1 (stereo not drawn)
IC50: > 5 µM
--
compound: CCOc1nc(NC(=O)Cc2cc(OC)ccc2OC)cc(N)c1C#N
IC50: > 10 µM

Switching to the query record.
Asked: Provide measured IC50 value, entry: O=C(NOCC1CC1)c1ccc(F)c(F)c1Nc1ccc(I)cc1Cl
Given back: > 10 µM

Cited source for all entries: ChEMBL document CHEMBL1201861
